Value source: the supplement of paper PMC9170038

# System: MS2 coat protein
# Method description: apparent KD of MS2 coat protein; designed switch direction (-1 OFF switch, 1 ON switch): -1; higher = weaker reporter binding
# Condition set: input ligand: none
Would you mind labelling by apparent KD of MS2 coat protein? At or over 60 nM is Criterion met, under is Criterion not met.

Sample answers from the record:
| Seq text | Class assignment |
| --- | --- |
| UCCUCACUUGAGGAUCACCCAAGUCAGGAUAUUCACUGAACUGCGUAACAGUUCGGCCGAAGAAGGGAUUCGGG [Veatorma] (Eterna round: R97, puzzle: Exclusion 1) | Criterion met |
| AGCAGACGAGGAUAUGAUAAUUAAUACAUGAGGAUCACCCAUGUAAUACUGAUCGAUAGAUCAGAAGGCGUCUGCU [E5/3-A2] (Eterna round: R97, puzzle: Exclusion 5) | Criterion not met |
| AGGAGUAGUAAGGAUAUAGCGGACUAGUCGUCGUUAGAAGGUACUACAUGAGGAUCACCCAUGUUGACCUGAGC [EX6 B.14] (Eterna round: R97, puzzle: Exclusion 6) | Criterion not met |

Attention now turns to another entry.
Ask | Please tell me: is the sequence AUUAUGUUAGGAUAUGCUUAUGGUGGAUAGUCCAAUGUGGUGCAGAAGGGACAUGAGGAUCACCCAUGUGCUGA [EX4 #30] (Eterna round: R97, puzzle: Exclusion 4) at or over 60 nM in terms of apparent KD of MS2 coat protein?
Reply | Criterion not met
